read-out: Monokine induced gamma interferon (MIG), CXCL9 (gene 4283); experiment: BSK_SAg_MIG: BioMAP Diversity Plus: SAg Assay for Monokine induced gamma interferon (MIG) Biomarker Activity (AID 2283092); conditions: primary human HUVEC with PBMC; actives raise or lower the signal
Calls of active or inactive are those of the source. The calls were made as follows: active = hit-call score of the fitted dose curve at least 0.9, where 1 is the maximum; inactive = score below 0.9.
Please answer using one outcome listed in active, inactive

Take a look at these entries with their results.
COMPOUND: CCCCCCCCC(=O)NCc1ccc(O)c(OC)c1
LABEL: inactive
//
COMPOUND: CCOC(=O)/C=C(C)/C=C/C[C@@H](C)CCCC(C)C
LABEL: inactive
//
COMPOUND: CN(C)N=O
LABEL: inactive

Input line: Per the records of this test, what outcome belongs to CC(=O)C(Cl)C(=O)N(C)C (stereo not given) ?
Output line: inactive

Input line: Per the records of this test, what outcome belongs to `CC(C)(C)CC(C)(C)c1ccc(O)cc1` ?
Output line: active

Input line: Per the records of this test, what outcome belongs to `CC(C)(c1ccccc1)c1ccc(O)c(C(C)(C)c2ccccc2)c1` ?
Output line: active

Input line: Per the records of this test, what outcome belongs to `CC1(C)Cc2cccc(O)c2O1` ?
Output line: inactive

Input line: Per the records of this test, what outcome belongs to `Cn1sc(Cl)cc1=O` ?
Output line: inactive

---

read-out: Glutathione S-Transferase (GSTA2), GSTA2 (gene 2939); assay: LTEA_HepaRG_GSTA2: Life Technologies and Expression Analysis (LTEA) Assay for Glutathione S-Transferase (GSTA2) using HepaRG (AID 2283497); settings: mRNA level, 48 h; actives raise or lower the signal
Activity calls are given as the source filed them. How the source made its calls: active means hit-call score of the fitted dose curve at least 0.9, where 1 is the maximum; inactive means score below 0.9.
Please answer using one outcome listed in active, inactive

Take a look at these entries with their results.
COMPOUND: ClCC(Cl)CCl
LABEL: inactive
//
COMPOUND: CC(C)(C)c1cc(O)ccc1O
LABEL: inactive
//
COMPOUND: ClC1(Cl)C2(Cl)C3(Cl)C4(Cl)C(Cl)(Cl)C5(Cl)C3(Cl)C1(Cl)C5(Cl)C24Cl (stereo unspecified)
LABEL: inactive
//
COMPOUND: CC(C)(C)CC(C)(C)c1ccc(O)cc1
LABEL: inactive
//
COMPOUND: Cc1ccccc1N
LABEL: inactive
//
COMPOUND: O=[N+]([O-])c1ccc(O)c([N+](=O)[O-])c1
LABEL: active

Input line: Per the records of this test, what outcome belongs to `O=C(O)C(Cl)(Cl)Cl` ?
Output line: inactive

Input line: Per the records of this test, what outcome belongs to `O=C(O)C(F)(F)C(F)(F)C(F)(F)C(F)(F)C(F)(F)C(F)(F)C(F)(F)C(F)(F)C(F)(F)C(F)(F)F` ?
Output line: active

---

molecular target: human Thromboxane A2 Receptor (TXA2), TBXA2R (gene 6915) (UniProt P21731); assay: NVS_GPCR_hTXA2: NovaScreen (NVS) G Protein-Coupled Receptor Assay for human Thromboxane A2 Receptor (TXA2) (AID 2283282);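 also: actives reduce bound radioligand signal relative to DMSO baseline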
Sequence (P21731 whole entry, looked up): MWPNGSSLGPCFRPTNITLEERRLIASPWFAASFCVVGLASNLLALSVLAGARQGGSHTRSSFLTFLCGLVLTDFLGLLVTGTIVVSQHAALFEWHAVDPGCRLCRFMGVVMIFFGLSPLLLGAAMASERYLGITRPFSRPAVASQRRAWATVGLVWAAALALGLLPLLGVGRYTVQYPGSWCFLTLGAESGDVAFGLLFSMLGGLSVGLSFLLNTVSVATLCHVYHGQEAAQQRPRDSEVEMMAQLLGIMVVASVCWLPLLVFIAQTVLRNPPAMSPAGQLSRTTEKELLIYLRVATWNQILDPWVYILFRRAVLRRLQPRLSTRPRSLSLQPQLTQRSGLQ
Records with an inconclusive call do not appear. The source made the active and inactive calls. Rule for the calls: active = hit-call score of the fitted dose curve at least 0.9, where 1 is the maximum; inconclusive = response in the unintended direction; inactive = score below 0.9.
Please answer using one outcome listed in active, inactive

Take a look at these entries with their results.
COMPOUND: O=C(O)C(F)(F)C(F)(F)C(F)(F)C(F)(F)C(F)(F)C(F)(F)C(F)(F)C(F)(F)C(F)(F)C(F)(F)F
LABEL: inactive
--
COMPOUND: COc1ccc(OC)c(C=O)c1
LABEL: inactive
--
COMPOUND: CCSC(C)CC1CC(=O)C(C(CC)=NOC/C=C/Cl)=C(O)C1 (stereo unspecified)
LABEL: active
--
COMPOUND: CCNc1nc(NC(C)(C)C)nc(SC)n1
LABEL: inactive
--
COMPOUND: N#CCc1ccc(Cl)cc1
LABEL: inactive

Then this compound:
Input line: Per the records of this test, what outcome belongs to `C=C(C)C(=O)[O][Sn]([CH2]CCC)([CH2]CCC)[CH2]CCC` ?
Output line: active

---

Test: ATG_DR4_LXR_CIS: Attagene CIS-FACTORIAL HepG2 Assay for human Liver X Receptor (LXR), DR4 submotif (AID 2282929)
Conditions: HepG2 Attagene DR4 cis-reporter, mRNA transcription; actives raise or lower the signal
Procedure: ATG_CIS is a cell-based, multiplexed-readout assay that uses HepG2, a human liver cell line, with measurements taken at 24 hours after chemical dosing in a 24-well plate.ATG_DR4_LXR_CIS is one of 52 assay component(s) measured or calculated from the ATG_CIS assay. […] This assay endpoint, ATG_DR4_LXR_CIS, was analyzed with bidirectional fitting relative to DMSO as the negative control and baseline of activity. […]
Activity calls are given as the source filed them. Rule for the calls: active = hit-call score of the fitted dose curve at least 0.9, where 1 is the maximum; inactive = score below 0.9.
Please answer using one outcome listed in 1 (yes) for active, 0 (no) for inactive

MOLECULE: C[C@H]1CCCC(=O)CCC/C=C/c2cc(O)cc(O)c2C(=O)O1
LABEL: 0 (no)

MOLECULE: Cc1ccc(N)cc1Cl
LABEL: 0 (no)

MOLECULE: CC(C)(c1ccccc1)c1ccc(O)c(C(C)(C)c2ccccc2)c1
LABEL: 0 (no)

MOLECULE: CC(Br)C(=O)O (centres undefined)
LABEL: 0 (no)

MOLECULE: CC(=O)OC(c1ccccc1)C(Cl)(Cl)Cl (centres undefined)
LABEL: 0 (no)

MOLECULE: CCCCP(CCCC)CCCC
LABEL: 0 (no)

MOLECULE: ClC1=C(Cl)[C@]2(Cl)[C@@H]3[C@@H](Cl)[C@@H](Cl)C[C@@H]3[C@@]1(Cl)C2(Cl)Cl
LABEL: 0 (no)

MOLECULE: Oc1ccc(-c2ccccc2)cc1
LABEL: 0 (no)

Input line: Per the records of this test, what outcome belongs to CC1(C)CCC(Cc2ccc(Cl)cc2)C1(O)Cn1cncn1 (centres undefined) ?
Output line: 1 (yes)

Input line: Per the records of this test, what outcome belongs to `c1cc[c]([Hg][c]2ccccc2)cc1` ?
Output line: 0 (no)

Input line: Per the records of this test, what outcome belongs to `BrCCBr` ?
Output line: 0 (no)

Input line: Per the records of this test, what outcome belongs to `ClCCBr` ?
Output line: 0 (no)

Input line: Per the records of this test, what outcome belongs to CCSC(C)CC1CC(=O)C(C(CC)=NOC/C=C/Cl)=C(O)C1 (centres undefined) ?
Output line: 0 (no)

Input line: Per the records of this test, what outcome belongs to `Clc1nc(Cl)nc(Cl)n1` ?
Output line: 0 (no)

---

assay: ATG_RORE_CIS: Attagene CIS-FACTORIAL HepG2 Assay for human RAR-related Orphan Receptor Element (RORE) (AID 2282959); settings: HepG2 Attagene cis-factorial RORE reporter, mRNA; actives raise or lower the signal
Active and inactive are the calls of the source. The calls were made as follows: active = hit-call score of the fitted dose curve at least 0.9, where 1 is the maximum; inactive = score below 0.9.
Please answer using one outcome listed in 1 for active, 0 for inactive

COMPOUND: CNC(=O)O/N=C/C(C)(C)S(C)=O (stereo unspecified)
LABEL: 0
--
COMPOUND: Clc1ccc(C2(Cn3cncn3)CC(Br)CO2)c(Cl)c1 (stereo unspecified)
LABEL: 1
--
COMPOUND: Nc1ccc(Cl)cc1C(=O)c1ccccc1
LABEL: 1
--
COMPOUND: Nc1cccc(Cl)c1
LABEL: 0
--
COMPOUND: CCC(C)c1cccc(C(C)CC)c1O (stereo unspecified)
LABEL: 0
--
COMPOUND: C=C(C)C(=O)[O][Sn]([CH2]CCC)([CH2]CCC)[CH2]CCC
LABEL: 0
--
COMPOUND: Fc1ccc(C2(Cn3cncn3)OC2c2ccccc2Cl)cc1 (stereo unspecified)
LABEL: 0
--
COMPOUND: O=C(OC1CCCCC1)c1ccccc1C(=O)OC1CCCCC1
LABEL: 1

Input line: Per the records of this test, what outcome belongs to `BrCCBr` ?
Output line: 0

---

experiment: ATG_ERE_CIS: Attagene CIS-FACTORIAL HepG2 Assay for Estrogen Response Element (ERE) (AID 2282940); settings: HepG2 ERE cis-reporter, Attagene RNA transcript; actives raise or lower the signal
Activity calls are given as the source filed them. The calls were made as follows: active = hit-call score of the fitted dose curve at least 0.9, where 1 is the maximum; inactive = score below 0.9.
Please answer using one outcome listed in active, inactive

Take a look at these entries with their results.
COMPOUND: COc1cc2c(cc1OC)[C@@]13CCN4CC5=CCO[C@H]6CC(=O)N2[C@H]1[C@H]6[C@H]5C[C@H]43
LABEL: inactive

COMPOUND: ClC1=C(Cl)[C@]2(Cl)[C@@H]3[C@@H](Cl)[C@@H](Cl)C[C@@H]3[C@@]1(Cl)C2(Cl)Cl
LABEL: inactive

COMPOUND: CC1(C)CCC(Cc2ccc(Cl)cc2)C1(O)Cn1cncn1 (stereo not drawn)
LABEL: active

Input line: Per the records of this test, what outcome belongs to `Cc1ccc2ccccc2c1C` ?
Output line: inactive

Input line: Per the records of this test, what outcome belongs to `NNC(=S)NN` ?
Output line: inactive

Input line: Per the records of this test, what outcome belongs to `COC(=O)Cc1ccccc1` ?
Output line: inactive

Input line: Per the records of this test, what outcome belongs to `O=Cc1cccc(Oc2ccccc2)c1` ?
Output line: inactive

Input line: Per the records of this test, what outcome belongs to `Cc1cc(Cl)ccc1O[C@H](C)C(=O)O` ?
Output line: inactive

Input line: Per the records of this test, what outcome belongs to CCC(=O)C(CC(C)N(C)C)(c1ccccc1)c1ccccc1 (stereo not drawn) ?
Output line: inactive

Input line: Per the records of this test, what outcome belongs to `N#Cc1ccccn1` ?
Output line: inactive

Input line: Per the records of this test, what outcome belongs to CC(C)C1CCC(Cc2ccc(Cl)cc2)C1(O)Cn1cncn1 (stereo not drawn) ?
Output line: inactive

Input line: Per the records of this test, what outcome belongs to `Cn1sc(Cl)cc1=O` ?
Output line: inactive

Input line: Per the records of this test, what outcome belongs to `C[C@H]1CCCC(=O)CCC/C=C/c2cc(O)cc(O)c2C(=O)O1` ?
Output line: active
